Entries and their TGI
Tested on: KM12 colon
Assay: NCI tumour cell line growth inhibition, 48 h

Use the examples below as a reference point.
CCc1ccccc1N1CCN(C(=O)c2cc(OC)c(OC)c(OC)c2)CC1 : 2.64 µM
N#C/C(=C1\NN=C(N)C(c2ccc(Cl)cc2)=C1O)c1ccc(Cl)cc1 : > 100 µM
C=CCOC1OC(CS(=O)(=O)O)C(O)C(O)C1O (stereo unspecified) : > 100 µM
O=C1/C(=C/c2ccc3c(c2)OCO3)CCC1CN1CCOCC1 (stereo unspecified) : 11 µM
C=CCN(N=O)C(=O)N(CCCC(NC(C)=O)C(=O)NCc1ccccc1)Cc1ccccc1 (stereo unspecified) : > 100 µM

Here's the next entry for you.
Prompt: Which TGI value belongs to COc1cc(Cl)cc(N(O)C(C)=O)c1OCc1ccccc1 ?
Completion: > 100 µM
